Exercise: state measured normalized growth for each of the molecules provided.
Test Description: chemical genetic growth profiling, strain panel (AID 1159580);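 further: tested at 20 µM; growth read once vehicle control cultures reached saturation at 30 °C; 1 = growth at the plate median or of vehicle wells; lower values mean less growth of the strain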
Experimental Context: S. cerevisiae deletion strains, growth OD, locus YGL227W, strain vid30, stronger effect = lower value
Out of some 5,500 compounds screened, about 2,000 (36%) were called active. Inconclusive results (about 18%) are left out. The list shows a part of the results.
Answers are plain numbers.

Would you mind listing normalized growth for each of the following molecules?
1. COc1ccc(C2C(=O)c3ccccc3C2=O)cc1
2. c1ccc([C@H]2CN3CCSC3=N2)cc1

Response:
[0.974, 1.02]

----------
Test Description: chemical genetic growth profiling, strain panel (AID 1159580)
Experimental Context: S. cerevisiae deletion strains, growth OD, locus YDL192W, strain arf1
Among all 5,500 compounds or so, about 2,000 (36%) were called active. About 18% were inconclusive and are not listed. Cut-off read from the data, not from the text of the source: active = normalized growth mostly below about 0.91 (no sharp cut-off); inconclusive = no clear call, values can overlap the other calls; inactive = mostly above about 0.92. Some of the results follow.
Outcome field: choose from active, inactive

Compound	Label
COc1cnc(NS(=O)(=O)c2ccc(N)cc2)nc1	inactive
CC(=O)CC1CCCCN1 (stereo unspecified)	inactive
CC(=O)O[C@@H]1CC[C@]2(C)C3CC[C@]4(C)C(=O)CCC4C3CC[C@H]2C1 (stereo partly specified)	inactive
COc1ccc(C(=O)c2ccccc2)c(O)c1O	active
COc1ccc2c(c1)[C@]13CCCC[C@H]1[C@H](C2)N(C)CC3	inactive

# ---- query compound ----
Prompt: Which outcome was assigned to "O=C(O)c1cc(=O)c2c(Cl)cc(Cl)cc2[nH]1" in this test?
Response: inactive

----------
Test Description: chemical genetic growth profiling, strain panel (AID 1159580);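 further: tested at 20 µM; growth read once vehicle control cultures reached saturation at 30 °C; 1 = growth at the plate median or of vehicle wells; lower values mean less growth of the strain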
Experimental Context: S. cerevisiae deletion strains, growth OD, locus YKR091W, strain srl3, stronger effect = lower value
Out of some 5,500 compounds screened, about 2,000 (36%) were called active. Another 18% or so got no clear call; they are omitted. Some of the results follow.
Assay Metric: normalized growth
Answers are plain numbers.

Worked examples, 3 molecules total:
Smiles Code	normalized growth
CCOc1ccc(C(=O)c2cc(O)c(OC)c(OC)c2O)cc1	0.999
CCOc1ccc(NC(C)=O)cc1	1.01
COc1ccc(C(=O)c2ccccc2)c(O)c1O	0.978

--- query ---
Prompt: Tell me the measured normalized growth of "CN1CCN(CC(=O)N2c3ccccc3C(=O)Nc3cccnc32)CC1" , please.
Response: 1

----------
Test Description: chemical genetic growth profiling, strain panel (AID 1159580);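 further: tested at 20 µM; growth read once vehicle control cultures reached saturation at 30 °C; 1 = growth at the plate median or of vehicle wells; lower values mean less growth of the strain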
Experimental Context: S. cerevisiae deletion strains, growth OD, locus YLR102C, strain apc9, stronger effect = lower value
About 2,000 (36%) of roughly 5,500 compounds were called active. About 18% were inconclusive and are not listed. The list shows a part of the results.
Assay Metric: normalized growth
One number for each entry.

Field: example entries. Status: answers known.
Molecule	Assay Metric	Value Observed
CC1(C)C(=O)[C@@H]2O[C@@H]2[C@@]2(C)C1CC(=O)[C@]1(C)C2CC[C@@]2(C)[C@H](c3ccoc3)OC(=O)[C@H]3O[C@]321 (stereo not given in full)	normalized growth	0.975
CCCCCCCCCCCCCCCCCCOCC(O)CO (stereo not given)	normalized growth	1.01
COc1cc(/C=C/C=O)cc(OC)c1OC	normalized growth	0.999
O=C(O)c1cc(=O)c2c(Cl)cc(Cl)cc2[nH]1	normalized growth	1.01
CCc1cccc2c3c([nH]c12)C(CC)(CC(=O)O)OCC3 (stereo not given)	normalized growth	1
CO[C@@]1(NC(=O)Cc2cccs2)C(=O)N2C(C(=O)O)=C(COC(N)=O)CS[C@@H]21	normalized growth	0.989
COC(=O)[C@]1(C)CC[C@]2(C)CC[C@]3(C)C4=CC=C5C(=CC(=O)C(O)=C5C)[C@]4(C)CC[C@@]3(C)[C@@H]2C1	normalized growth	0.983
COc1c2ccoc2cc2oc(C)cc(=O)c12	normalized growth	0.992
c1ccc([C@H]2CN3CCSC3=N2)cc1	normalized growth	1
NCC1OC(OC2C(CO)OC(OC3C(O)C(N)CC(N)C3OC3OC(CO)C(O)CC3N)C2O)C(N)C(O)C1OC1OC(CO)C(O)C(O)C1O (stereo not given)	normalized growth	0.997

List the reported normalized growth of each molecule below.
1. O=c1c(O)c(-c2ccc(O)c(O)c2)oc2cc(O)ccc12
2. CC(=O)O[C@H]1CC[C@]2(C)C3CC[C@@]4(C)C(CC5O[C@@]6(CCC(C)CO6)[C@@H](C)C54)C3CC[C@@H]2C1 (stereo not given in full)
3. Cc1onc(-c2ccccc2)c1C(=O)NC1C(=O)N2[C@@H]1SC(C)(C)[C@@H]2C(=O)O (stereo not given in full)
4. CC(NCCC(c1ccccc1)c1ccccc1)c1ccccc1 (stereo not given)
5. CCNc1nc(Cl)nc(NCC)n1
6. CC[C@H]1OC(=O)[C@H](C)[C@@H](O[C@H]2C[C@@](C)(OC)[C@@H](O)[C@H](C)O2)[C@H](C)[C@@H](O[C@@H]2O[C@H](C)C[C@H](N(C)C)[C@H]2O)[C@](C)(O)C[C@@H](C)[C@@H]2N[C@@H](COCCOC)O[C@H]([C@H]2C)[C@]1(C)O
7. C1CCC(C(CC2CCCCN2)C2CCCCC2)CC1 (stereo not given)
8. COc1c2occc2c(OC)c2c(=O)cc(C)oc12

Response:
1.01
0.991
1
0.985
1.01
1.01
1.01
1.01

List normalized growth for every entry below, keeping the order given.
1. O=C(O)c1cc(=O)c2cccc(O)c2[nH]1
2. OC(c1cc(C(F)(F)F)nc2c(C(F)(F)F)cccc12)C1CCCCN1 (stereo not given)
3. CC(=O)OCC(=O)[C@@]1(O)CCC2C3CCC4=CC(=O)CC[C@]4(C)C3[C@@H](O)C[C@@]21C (stereo not given in full)
4. CC(=O)O[C@H]1CC[C@]2(C)C3CC[C@@]4(C)C(CC5O[C@@]6(CCC(C)CO6)[C@@H](C)C54)C3CC[C@H]2C1 (stereo not given in full)

Response:
[0.979, 0.991, 0.995, 0.979]

The following molecules each have a reported value; give each one's normalized growth.
1. CC1=CC2C(C(C)C)CCC(C)(O)C2CC1 (stereo not given)
2. Cc1onc(-c2c(Cl)cccc2Cl)c1C(=O)N[C@@H]1C(=O)N2[C@@H]1SC(C)(C)[C@@H]2C(=O)O
3. COc1cc2c(cc1OC)-c1c(oc3c4c(ccc3c1=O)OC(C(C)C)C4)CO2 (stereo not given)

Response:
[0.989, 0.994, 0.988]

----------
Test Description: chemical genetic growth profiling, strain panel (AID 1159580);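 further: tested at 20 µM; growth read once vehicle control cultures reached saturation at 30 °C; 1 = growth at the plate median or of vehicle wells; lower values mean less growth of the strain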
Experimental Context: S. cerevisiae deletion strains, growth OD, locus YLL041C, strain sdh2, stronger effect = lower value
About 2,000 (36%) of roughly 5,500 compounds were called active. Not shown: some 18% with an inconclusive outcome. This is one part of the list. Where a SMILES comes first, the peptide text is derived from it. Side-chain parts run from the residue outwards. [ ]: non-standard residue; d: D form. The star is where a group is joined. X1 = CCC(C)C(N)C1=NC(C(=O)*)CS1; Orn = NCCC[CH](N)C(=O)O
Would you mind telling me the reported normalized growth of each entry?
Answers are plain numbers.

Below, 3 compounds whose answers are already recorded.
Compound	normalized growth
CC(=O)NO	0.988
CCCCCCCCCCCCCCCCCCOCC(O)CO (stereo not drawn)	0.997
CC(=O)O[C@H]1CC[C@]2(C)C3CC[C@@]4(C)C(CC5O[C@@]6(CCC(C)CO6)[C@@H](C)C54)C3CC[C@@H]2C1 (stereo partly drawn)	1.02

Parameter requested: normalized growth. Apply to each item below.
1. CC(=O)O[C@H]1CC[C@]2(C)C3CC(=O)[C@]4(C)C(C(C)=O)=CCC4C3CC[C@H]2C1 (stereo partly drawn)
2. CC(NCCC(c1ccccc1)c1ccccc1)c1ccccc1 (stereo not drawn)
3. NC(=O)NO
4. CC(=O)O[C@@H]1CC[C@]2(C)C3CC[C@]4(C)C(=O)CCC4C3CC[C@H]2C1 (stereo partly drawn)
5. CC[C@H]1CN2CCc3cc(OC)c(OC)cc3C2C[C@@H]1CC1NCCc2cc(OC)c(OC)cc21 (stereo partly drawn)
6. CC1=CC2C(C(C)C)CCC(C)(O)C2CC1 (stereo not drawn)
7. CCC(C)C(N)C1=NC(C(=O)NC(CC(C)C)C(=O)NC(CCC(=O)O)C(=O)NC(C(=O)NCCCCC2NC(=O)C(CC(N)=O)NC(=O)C(CC(=O)O)NC(=O)C(Cc3cnc[nH]3)NC(=O)C(Cc3ccccc3)NC(=O)C(C(C)CC)NC(=O)C(CCCN)NC2=O)C(C)CC)CS1 (stereo not drawn) (cyclo(DNK([Ile-Glu-Leu-X1])[Orn]IFH); configuration not given here)
8. CNCC[C@@H](Oc1ccccc1)c1ccccc1

Response:
[0.991, 0.997, 1.02, 0.986, 0.989, 0.995, 1.01, 0.968]

Below are 2 compounds. Give each one its normalized growth.
1. Cc1onc(-c2c(Cl)cccc2Cl)c1C(=O)N[C@@H]1C(=O)N2[C@@H]1SC(C)(C)[C@@H]2C(=O)O
2. COc1c2c(cc3c1OCO3)C13C=C[C@H](OC)CC1N(C2)CC3O (stereo partly drawn)

Response:
1. 0.987
2. 0.98

Data origin, for the record: PubChem BioAssay AID1159580
